Measured IC50 accompanies every entry in the list below.
Molecular target: human TLR8 (Homo sapiens)
Sequence (Q9NR97 27-1041): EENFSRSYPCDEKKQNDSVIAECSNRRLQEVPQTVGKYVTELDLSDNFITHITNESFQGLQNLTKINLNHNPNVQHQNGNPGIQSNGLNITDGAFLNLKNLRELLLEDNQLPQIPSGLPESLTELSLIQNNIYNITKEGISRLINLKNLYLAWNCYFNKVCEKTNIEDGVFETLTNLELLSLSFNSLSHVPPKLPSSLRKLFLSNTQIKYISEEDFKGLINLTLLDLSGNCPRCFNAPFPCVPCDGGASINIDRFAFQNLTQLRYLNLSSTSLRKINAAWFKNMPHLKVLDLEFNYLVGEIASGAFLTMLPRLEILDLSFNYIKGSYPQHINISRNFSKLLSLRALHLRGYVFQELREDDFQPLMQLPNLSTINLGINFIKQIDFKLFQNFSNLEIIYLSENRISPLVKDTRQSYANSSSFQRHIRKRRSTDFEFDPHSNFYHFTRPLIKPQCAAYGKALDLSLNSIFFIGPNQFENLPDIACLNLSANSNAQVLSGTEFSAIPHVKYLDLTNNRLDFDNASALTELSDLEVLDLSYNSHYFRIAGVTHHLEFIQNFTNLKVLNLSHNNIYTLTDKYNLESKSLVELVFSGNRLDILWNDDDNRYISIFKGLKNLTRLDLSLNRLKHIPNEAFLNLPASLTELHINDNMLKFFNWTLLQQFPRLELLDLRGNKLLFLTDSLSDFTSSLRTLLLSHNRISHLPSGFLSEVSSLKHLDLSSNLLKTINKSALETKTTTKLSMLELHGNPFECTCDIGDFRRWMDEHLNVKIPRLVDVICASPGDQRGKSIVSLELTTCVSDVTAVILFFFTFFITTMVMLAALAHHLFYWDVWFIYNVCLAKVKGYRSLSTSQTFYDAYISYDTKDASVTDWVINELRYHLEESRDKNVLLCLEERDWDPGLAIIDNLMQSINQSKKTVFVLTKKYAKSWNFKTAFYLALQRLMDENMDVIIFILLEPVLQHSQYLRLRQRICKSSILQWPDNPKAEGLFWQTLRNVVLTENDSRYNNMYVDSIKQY
Test: TLR8 inhibition reporter assay (HEK-Blue cells, SEAP reporter, R848 stimulation)
Conditions: HEK-Blue cells overexpressing human TLR8, SEAP reporter, R848 15.9 μM

>>> df
                                   compound              target_entity  assay_endpoint  observed_value
0  Cc1cc(-c2[nH]c3ccc(C4CCNCC4)cc3c2C(C)C)cn2cc(C(=O)NC3CC3)nc12 [Example 262]  human TLR8 (Homo sapiens)            IC50        < 0.1 µM
1  COc1cc(-c2[nH]c3ccc(C4CCN(C5COC5)CC4)cc3c2C(C)C)cc2ncnn12 [Example 710]  human TLR8 (Homo sapiens)            IC50        < 0.1 µM
2  Cc1cc(-c2[nH]c3ccc(C4CCN(CC(=O)N(C)C)CC4)cc3c2C(C)C)cn2nncc12 [Example 307]  human TLR8 (Homo sapiens)            IC50     0.1 to 1 µM
3  Cc1cc(-c2[nH]c3ccc(C4CCNCC4)cc3c2C(C)C)cn2nncc12 [Example 70]  human TLR8 (Homo sapiens)            IC50     0.1 to 1 µM
4  Cc1cc(-c2[nH]c3ccc(C4CCNCC4)cc3c2C(C)C)cc2cn(C)nc12 [Example 138]  human TLR8 (Homo sapiens)            IC50        < 0.1 µM
5  CCc1c(-c2ccnc3[nH]ncc23)[nH]c2ccc(C3CCN(Cc4cocn4)CC3)cc12 [Example 920]  human TLR8 (Homo sapiens)            IC50        < 0.1 µM

Now for a further compound.
Identify the measured IC50 of CNCC(=O)N1CCC(c2ccc3[nH]c(-c4cc(OC)n5ncnc5c4)c(C(C)C)c3c2)CC1 [Example 553] for human TLR8 (Homo sapiens).
< 0.1 µM
